conditions: in methanol, 318.2 K
result type: solubility (mole fraction)
The answer should be written as a number, with no unit following it.

Kindly note the recorded solubility (mole fraction) for `O=c1c(-c2ccc(O)cc2)coc2cc(O)cc(O)c12` , which is 0.00266

---

details: in ethyl acetate, 328.2 K
result type: solubility (mole fraction)
Enter a number only.

Quick note, solubility (mole fraction) for `O=c1c(-c2ccc(O)cc2)coc2cc(O)cc(O)c12` landed at 0.00539

---

details: in water, 318.2 K
result type: solubility (mole fraction)
Response field accepts a number only; no unit should be typed.

The compound `O=c1c(-c2ccc(O)cc2)coc2cc(O)cc(O)c12` showed solubility (mole fraction) equal to 1.99e-07
